These measurements were taken from paper PMC6522510.

Each entry below lists one item and its recorded MOLM-13 %inh value.
- System: MOLM-13
- Parameters: species or system AML cell lines (8); Primary HTS, single concentration about 10 uM, Cell Titer Glo viability; log10 luminescence, per cent inhibition relative to cycloheximide control
- experimental_parameters: 72 h, relative to cycloheximide control, log10 luminescence; inhibitor
Structures can show the parent of a compound that is named as a salt.
quantity: MOLM-13 %inh (%)

# molecule, quantitative_result
measured = [
    ("C[C@]12C=CC(=O)C=C1CC[C@@H]1[C@@H]2[C@@H](O)C[C@@]2(C)[C@H]1CC[C@]2(O)C(=O)COP(=O)(O)O [SJ000555709-1, PREDNISOLONE SODIUM PHOSPHATE]", 2.036),
    ("CCN(CC)CCOC(=O)c1ccc(N)cc1Cl [SJ000565166-1, CHLOROPROCAINE HYDROCHLORIDE]", 5.209),
    ("COc1ccc(C(Cl)=C(c2ccc(OC)cc2)c2ccc(OC)cc2)cc1", 5.231),
    ("COC(=O)CCCC1=CC2=CC(=O)C(C)(OC(=O)c3cccs3)C(=O)C2=CN1C1CCCCC1 (stereo not drawn)", 2.949),
    ("Nc1ncnc2occ(-c3ccc(NC(=O)Nc4cccc(C(F)(F)F)c4)cc3)c12", 88.68),
    ("CN1CCN(Cc2ccc(-c3cc4ncnc(Nc5ccc(OCc6cccc(F)c6)c(Cl)c5)c4s3)o2)CC1", 4.975),
]

###

Each entry below lists one item and its recorded EC50 value.
- Test system: ML-2
- assay_notes: cells
- Set-up: species or system AML cell lines (8)
- experimental_parameters: Homo sapiens, ML-2, 72 h, read-out: ML-2

# molecule, target_desc, EC50
rows = [
    ("Cn1c(COP(=O)(NCCBr)NCCBr)cnc1[N+](=O)[O-] [TH-302]", "ML-2", "> 10 µM"),
    ("COC1=CC(=O)O[C@@H](/C=C/c2ccc3c(c2)OCO3)C1 [METHYSTICIN]", "ML-2", "> 10 µM"),
]

###

- Tested on: MOLM-13
- assay_notes: Secondary dose-response HTS, Cell Titer Glo
- Format: cell-based, human
- experimental_parameters: Homo sapiens; secondary high-throughput screen; MOLM-13; read-out: average effective concentration, MOLM-13
Response field label: string, one of 1.0 (EC50 strictly below 2000 nM) or 0.0.

# molecule, assigned_category
records = [
    ("COc1cc([C@@H]2c3cc4c(cc3[C@@H](O[C@@H]3O[C@@H]5CO[C@@H](C)O[C@H]5[C@H](O)[C@H]3O)[C@H]3COC(=O)[C@H]23)OCO4)cc(OC)c1O [ETOPOSIDE]", 0.0),
    ("C[C@@H]1C[C@H]2O[C@@H]2/C=C\\C=C\\C(=O)Cc2c(Cl)c(O)cc(O)c2C(=O)O1 [RADICICOL]", 1.0),
    ("CN1CC[C@H](c2c(O)cc(O)c3c(=O)cc(-c4ccccc4Cl)oc23)[C@H](O)C1 [ALVOCIDIB]", 1.0),
    ("N#CCNC(=O)c1ccc(-c2ccnc(Nc3ccc(N4CCOCC4)cc3)n2)cc1 [CYT-387]", 1.0),
    ("CN[C@@H](C)C(=O)N[C@H](C(=O)N1CCC[C@H]1c1nc(C(=O)c2ccc(F)cc2)cs1)C1CCCCC1 [LCL-161]", 0.0),
    ("O=C(O)c1ccc2c(c1)nc(Nc1cccc(Cl)c1)c1ccncc12 [SILMITASERTIB]", 0.0),
    ("Nc1cc(C(F)(F)F)c(-c2cc(N3CCOCC3)nc(N3CCOCC3)n2)cn1 [BUPARLISIB]", 1.0),
    ("O=C(/C=C/c1cccc(S(=O)(=O)Nc2ccccc2)c1)NO [BELINOSTAT]", 1.0),
    ("Cc1cc(C2CCCCC2)n(O)c(=O)c1 [CICLOPIROX]", 0.0),
    ("NC(=O)c1cccc2cn(-c3ccc([C@@H]4CCCNC4)cc3)nc12 [NIRAPARIB]", 0.0),
    ("COCc1c(C(C)C)nc(C(C)C)c(/C=C/[C@@H](O)C[C@@H](O)CC(=O)O)c1-c1ccc(F)cc1 [CERIVASTATIN]", 1.0),
]

###

Each entry below lists one item and its recorded CMS %inh value.
- Tested on: CMS
- Parameters: species or system AML cell lines (8); Primary HTS, single concentration about 10 uM, Cell Titer Glo viability; log10 luminescence, per cent inhibition relative to cycloheximide control
- experimental_parameters: 72 h, relative to cycloheximide control, log10 luminescence; inhibitor

# compound, CMS %inh [%]
measured = [
    ("N#Cc1c(C(=O)c2ccccc2)cnn1-c1ccccc1 [SJ000581131-1]", 1.498),
    ("Cn1cc(C2=C(c3cn(CCCO)c4ccccc34)C(=O)NC2=O)c2ccccc21 [SJ000580995-1]", 6.597),
    ("CCS(=O)(=O)c1ccc(OC)c(Nc2ncc(-c3ccccc3Cl)o2)c1 [SJ000573291-1, U15747/47/1]", -1.399),
    ("COc1cc2c(cc1Nc1nc(Nc3ccsc3C(N)=O)c3cc[nH]c3n1)N(C(=O)CN(C)C)CCC2 [SJ000573044-1, N3343-60-3]", 65.93),
    ("O=C1NC(=NCCc2cccc(F)c2)S/C1=C\\c1ccc2ncccc2c1 [SJ000581129-1]", 28.27),
    ("CC(=O)N[C@@H](Cc1ccc(OP(=O)(O)O)cc1)C(=O)N[C@H]1CCC(=O)N2CCC[C@@H](C(=O)NCc3cccc4ccccc34)N2C1=O [SJ000581126-1]", 3.071),
    ("Cn1cc(C2=C(c3c4n(c5ccccc35)CCCCC4)C(=O)NC2=O)c2ccccc21 [SJ000581007-1]", -2.233),
]

###

- assay_notes: Pharmacokinetics of ruxolitinib, single oral dose, plasma LC-MS/MS
- Assay type: in vivo, mice
- experimental_parameters: mouse, NSG, Male, 60 mg kg−1 oral gavage

# smiles_entry, Cmax, µM
data = [
    ("N#CC[C@H](C1CCCC1)n1cc(-c2ncnc3[nH]ccc23)cn1", 5.5),
]

###

- Test system: U937
- Parameters: species or system AML cell lines (8); Primary HTS, single concentration about 10 uM, Cell Titer Glo viability; log10 luminescence, per cent inhibition relative to cycloheximide control
- experimental_parameters: 72 h, relative to cycloheximide control, log10 luminescence, inhibitor, U937 %inh, 10 µM
Square brackets hold non-standard residues; d marks the D form. Peptide text beside a SMILES is read from it. * marks the point of attachment. Sta = CC(C)C[C@H](N)[C@@H](O)CC(=O)O; Isovaleryl = CC(C)CC(=O)*
quantity: U937 %inh (%)

# molecule, unit_spec, quantitative_result
records = [
    ("Clc1ccc(C(Cn2ccnc2)OCc2ccsc2Cl)c(Cl)c1 (single isomer, unassigned) [SJ000556739-1, TIOCONAZOLE]", "%", 20.14),
    ("CNC(=O)[C@@H](NC(=O)[C@H](CC(C)C)[C@H](O)C(=O)NO)C(C)(C)C [SJ000772411-1]", "%", 2.038),
    ("C[C@H](CS)C(=O)N1CCC[C@H]1C(=O)O [SJ000286908-9, CAPTOPRIL]", "%", -2.673),
    ("CCCC(CCC)C(=O)O [SJ000287008-5]", "%", -1.54),
    ("Nc1ncnc2occ(-c3ccc(NC(=O)Nc4cc(C(F)(F)F)ccc4F)cc3)c12 [SJ000573048-2]", "%", 50.36),
    ("CC(C)CC(=O)N[C@H](C(=O)N[C@H](C(=O)N[C@@H](CC(C)C)[C@@H](O)CC(=O)N[C@@H](C)C(=O)N[C@@H](CC(C)C)[C@@H](O)CC(=O)O)C(C)C)C(C)C [SJ000287258-3, PEPSTATIN A] (Isovaleryl-VV[Sta]A[Sta]-OH)", "%", 4.393),
    ("COc1ccc2cc(CCC(C)=O)ccc2c1 [SJ000285475-3, NABUMETONE]", "%", -2.289),
]

###

Each entry below lists one item and its recorded MOLM-13 %inh value.
- Tested on: MOLM-13
- Design: species or system AML cell lines (8); Primary HTS, single concentration about 10 uM, Cell Titer Glo viability; log10 luminescence, per cent inhibition relative to cycloheximide control
- experimental_parameters: 72 h, relative to cycloheximide control, log10 luminescence; inhibitor

# compound, unit_spec, MOLM-13 %inh
records = [
    ("C[C@@H]1C[C@H]2[C@@H]3C[C@H](F)C4=CC(=O)C=C[C@]4(C)[C@@]3(F)[C@@H](O)C[C@]2(C)[C@@]1(OC(=O)c1ccco1)C(=O)SCF [SJ000556747-1, FLUTICASONE FUROATE]", "%", 2.731),
    ("Cn1cc(C2=C(c3ccccc3[N+](=O)[O-])C(=O)NC2=O)c2ccccc21", "%", 15.35),
    ("CO/N=C(\\C(=O)N[C@@H]1C(=O)N2C(C(=O)O)=CCS[C@H]12)c1csc(N)n1 [SJ000565169-1, CEFTIZOXIME SODIUM]", "%", -3.581),
]
